Collected IC50 values appear next to each entry.
biological target: indoleamine 2, 3-dioxygenase (IDO1) (Homo sapiens); construct: human peripheral blood mononuclear cells (PBMC) (PB003F; host or cells: human PBMC stimulated with IFN-gamma and LPS; assay: PBMC IDO1 assay (kynurenine detection via mass spectrometry); type: cell-based; conditions: human PBMC stimulated with IFN-γ and LPS, 2 days, kynurenine by mass spectrometry; read-out: IDO1 PBMC pIC50 (converted)
Sequence (P14902 whole entry): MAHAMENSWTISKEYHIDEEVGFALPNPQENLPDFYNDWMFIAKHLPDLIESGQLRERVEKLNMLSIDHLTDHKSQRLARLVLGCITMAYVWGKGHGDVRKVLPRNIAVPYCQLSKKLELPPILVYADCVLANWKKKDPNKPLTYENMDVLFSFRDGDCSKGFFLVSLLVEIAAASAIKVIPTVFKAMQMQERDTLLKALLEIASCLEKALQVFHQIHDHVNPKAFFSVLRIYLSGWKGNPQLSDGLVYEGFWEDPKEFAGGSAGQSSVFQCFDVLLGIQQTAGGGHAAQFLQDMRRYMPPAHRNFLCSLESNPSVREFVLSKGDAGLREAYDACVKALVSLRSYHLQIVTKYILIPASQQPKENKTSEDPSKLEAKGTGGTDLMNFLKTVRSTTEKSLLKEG
Write the value in nM as a bare number.

Observe how each entry below is paired with its result.
COMPOUND | SYSTEM_NAME | NUMERIC_READOUT
CC(C)(C)OC(=O)N1CCC(CC(NC(=O)c2ccc(C(F)(F)F)cc2)c2ccccc2)CC1 (stereo not shown) | indoleamine 2, 3-dioxygenase (IDO1) (Homo sapiens) | 31.6
CCC(CC)c1nc(C(CC2CCN(C(=O)OC(C)(C)C)CC2)NC(=O)c2ccc(Cl)s2)no1 (stereo not shown) | indoleamine 2, 3-dioxygenase (IDO1) (Homo sapiens) | 3.98
CCC(CC)c1nc(C(CC2CCN(C(=O)OC(C)(C)C)CC2)NC(=O)c2ccc(F)cc2)no1 (stereo not shown) | indoleamine 2, 3-dioxygenase (IDO1) (Homo sapiens) | 100

Now for another entry.
IN: Answer with reported IC50 of O=C(NC(CC1CCN(C(=O)OC2CC2)CC1)c1ccccc1)c1ccc(Cl)cc1 (stereo not shown)
OUT: 15.8

Values compiled from patent US20210078988A1.
